# measured on: PEG-3 (UniProt Q6IN02)
# Sequence (Q6IN02 whole entry, looked up): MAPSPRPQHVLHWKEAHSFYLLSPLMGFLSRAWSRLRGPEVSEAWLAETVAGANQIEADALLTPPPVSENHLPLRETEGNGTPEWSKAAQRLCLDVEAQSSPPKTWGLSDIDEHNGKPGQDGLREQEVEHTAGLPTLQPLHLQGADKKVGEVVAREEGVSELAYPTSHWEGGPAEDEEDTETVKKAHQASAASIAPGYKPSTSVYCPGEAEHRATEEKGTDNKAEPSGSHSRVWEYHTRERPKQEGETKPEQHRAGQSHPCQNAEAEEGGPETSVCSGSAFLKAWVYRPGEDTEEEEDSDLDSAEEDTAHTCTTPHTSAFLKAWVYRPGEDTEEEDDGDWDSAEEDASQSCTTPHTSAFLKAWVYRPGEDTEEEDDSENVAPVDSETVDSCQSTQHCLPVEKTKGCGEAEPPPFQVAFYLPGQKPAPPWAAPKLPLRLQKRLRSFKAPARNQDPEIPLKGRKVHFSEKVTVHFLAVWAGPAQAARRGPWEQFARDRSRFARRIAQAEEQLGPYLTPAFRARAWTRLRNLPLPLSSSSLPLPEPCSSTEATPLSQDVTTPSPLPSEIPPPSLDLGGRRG
# run description: Peg3 promoter luciferase inhibitors, potency, dose response, cell-based, HeLa, CREF/GAPDH counter-screen panel (AID 624167)
# condition context: CREF/GAPDH counter-screens; HeLa PEG-Prom luciferase reporter, overnight, run 1, dose range 1, at 100 µM (top of the series) unless noted
Provide the recorded inhibition for the entries that follow.
One number for each entry, in %.

Some compounds with recorded inhibition:
COc1cc(Nc2c3ccccc3nc3ccccc23)cc(OC)c1OC ... 102
CCC(C)Cn1c(O)cc2nn(-c3nc4ccccc4s3)c(=O)c-2c1C (stereo unspecified) ... 99
COc1ccc(OCc2cccc(C(=O)O)c2)cc1 ... 98.7
COc1cc(OC)c(OC)cc1CCC(C)NCCC(c1ccccc1)c1ccccc1 (stereo unspecified) ... 100
CN(C)CCc1cc2c(c3c1ccc1ccccc13)OCO2 ... 98.3
CCOC(=O)C1=C(COCCN)NC(C)=C(C(=O)OC)C1c1ccccc1Cl (stereo unspecified) ... 98.7
Cc1cc(N2CCN(C)CC2)ccc1NC(=O)c1c2c(nc3ccccc13)CCN(Cc1ccccc1)C2 ... 101
CC(C)CC(N)c1csc(Nc2ccc(C(=O)N(C)Cc3ccccc3)cn2)n1 (stereo unspecified) ... 96.3

Give inhibition for all compounds that follow.
1. O=c1c2ccccc2cnn1-c1nc2ccccc2[nH]1
2. O=c1c2c3c(sc2nc(N2CCNCC2)n1CCc1ccccc1)CCCCC3
3. Cc1cc(C(=O)CN2C(=O)c3ccccc3S2(=O)=O)c(C)n1-c1ccccc1

A:
98.4
102
98.9
